# assay_remarks: NCI Yeast Anticancer Drug Screen. Data for the rad50 strain (AID 155);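 note: 0% = growth of vehicle-only cultures of the same strain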
# test_settings: S. cerevisiae rad50 strain growth inhibition; at 50.0 µM (retest, dose inferred, filed as 5.0)
This is part of a sample that, as a whole, favours compounds with a hit. Of some 79,000 tested, about 15% had one in any assay. Calls of active or inactive are those of the source. Cut-off read from the data, not from the text of the source: active = growth inhibition above about 70%; inactive = the rest.
Response enum: class 1 (active), class 0 (inactive)

compound: Cc1c2cnccc2c(C)c2c1sc1ccccc12
group_label: class 1
//
compound: CCc1c(C)[nH]c2c([N+](=O)[O-])cccc12
group_label: class 0

Q: Hi, do you know how CCOC(=O)/C(=C\c1ccc(Br)cc1)C(C)=O came out in this test?
A: class 1

Q: Subsequent entry: CCOC(=O)Cc1csc(/C=C/c2ccc(OC)c(OC)c2)n1
A: class 0

Q: And O=C1c2ccccc2C(=O)c2cc(N3C(=O)C=CC3=O)ccc21 ?
A: class 1

Q: Next compound up: Nc1ccccc1Sc1ccc(F)cc1[N+](=O)[O-]
A: class 1

Q: Also CCCCCN=C(C)C(C)=NCCCCC , if possible.
A: class 1

----------
# assay_remarks: NCI Yeast Anticancer Drug Screen. Data for the sgs1 mgt1 strain (AID 161);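 note: 0% = growth of cultures given vehicle only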
# test_settings: S. cerevisiae sgs1 mgt1 strain, at 50.0 µM, active compounds read high
This is part of a sample that, as a whole, favours compounds with a hit. Of some 79,000 tested, about 15% had one in any assay.
Rule: growth inhibition of 50% or more gives Criterion met; anything lower gives Criterion not met.

A selection of reference data follows.
compound: CSc1ncc2c(n1)-c1ccccc1OC2NC1CC1 (stereo unspecified)
group_label: Criterion not met

compound: CCOC(=O)C(C(=O)OCC)C(=O)c1ccc2c(c1)OCO2
group_label: Criterion met

compound: NNC(=O)c1ccc(N)cc1O
group_label: Criterion not met

compound: C(=NCCc1ccccc1)c1ccccc1B1OB(c2ccccc2C=NCCc2ccccc2)OB(c2ccccc2C=NCCc2ccccc2)O1
group_label: Criterion met

compound: CCOC(=O)N(c1ccccc1)N(CC)C(=O)/C(C)=N/Nc1ccc([N+](=O)[O-])cc1
group_label: Criterion met

Q: Decide: is the reported value of growth inhibition for O=C1/C(=C/c2ccccc2)CN(C(=O)CCN2CCCC2)C/C1=C\c1ccccc1 equal to or greater than 50%?
A: Criterion met

Q: // repeat for CCCCCOC(=O)CSC#N and report
A: Criterion met

Q: What would you report for CC(=O)NNc1nc(C)c(C(=O)NNC(=O)C(=O)Nc2ccc(Cl)c([N+](=O)[O-])c2)s1 ?
A: Criterion met

Q: Cc1ccnc(NS(=O)(=O)c2ccc(N=Cc3c4ccccc4nc4cc(Cl)ccc34)cc2)n1 ?
A: Criterion met

Q: Lookup C/C=C(\C)[C@H](O)C(COCc1ccccc1)NS(=O)(=O)c1ccc(C)cc1 (stereo partly specified)
A: Criterion not met

----------
# assay_remarks: NCI Yeast Anticancer Drug Screen. Data for the cln2 rad14 strain (AID 165);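 note: 0% = growth equal to vehicle treated cultures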
# test_settings: S. cerevisiae cln2 rad14 strain, at 50.0 µM, active compounds read high
The panel holds about 79,000 compounds, 15% with a hit somewhere; the sample as a whole holds those more often.
Label rule, in plain words: growth inhibition of 90% and up is 1, under 90% is 0.

Q: State whether the measured growth inhibition reaches 90%, counting equality as reaching it, for COc1ccc2c(c1)OC(OC)(c1ccccc1)C(O)(OC)C2=O (stereo unspecified)
A: 0

Q: Subsequent entry: CCCCCC(C)NCCOC(=O)c1ccccc1 (stereo unspecified)
A: 0

Q: O=C(Nc1cc(Cl)ccc1Oc1cc(Cl)c(Cl)cc1S(=O)(=O)O)Nc1cc(Cl)ccc1Oc1cc(Cl)c(Cl)cc1S(=O)(=O)O ?
A: 0

Q: Queued: Cc1sc(Cc2ccccc2)nc1-c1ccc(N=Cc2ccc(N(CCOS(C)(=O)=O)CCOS(C)(=O)=O)cc2)cc1
A: 1

Q: And for O=c1c2cc3c(cc2c2cccc4c2n1CCC4)OCO3 ?
A: 0
